subject of test: GSK3β (h) (Homo sapiens)
Sequence (P49841 whole entry): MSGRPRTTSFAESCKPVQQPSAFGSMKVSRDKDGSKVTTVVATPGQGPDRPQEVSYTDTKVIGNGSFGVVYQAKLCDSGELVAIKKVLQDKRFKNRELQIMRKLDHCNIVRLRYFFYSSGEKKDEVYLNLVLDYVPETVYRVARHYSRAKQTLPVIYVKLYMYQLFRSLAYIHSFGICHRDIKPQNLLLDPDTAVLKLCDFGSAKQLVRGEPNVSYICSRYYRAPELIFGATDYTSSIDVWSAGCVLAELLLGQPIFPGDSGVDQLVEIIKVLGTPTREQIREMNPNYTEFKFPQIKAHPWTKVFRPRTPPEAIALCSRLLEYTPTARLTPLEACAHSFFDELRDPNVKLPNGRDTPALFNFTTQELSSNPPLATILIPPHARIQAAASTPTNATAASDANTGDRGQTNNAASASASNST
protocol summary: GSK-3β human kinase inhibition, SPA
Format: biochemical
condition: read-out: GSK3b pIC50 (converted)
Collected IC50 values appear next to each entry.

COc1ccc2cc1CN(C)CCNC(=O)[C@@H]1CCCN1Cc1cccc(c1)Nc1nccc-2n1 [Compound 175]	> 10 µM

Now look at this entry.
QUERY: Provide measured IC50 value, entry: COc1ccc2cc1CN(C)CCNC(=O)[C@H](CO)NCc1cccc(c1)Nc1nccc-2n1 [Compound 120]
RESULT: > 10 µM

----------
Test system: MDA-MB-231
protocol summary: Cellular proliferation assay (Alamar blue), MDA-MB-231
Format: cell-based
condition: Homo sapiens, 10% FCS, 72 hours with compound, Alamar blue 24 h, read-out: MDA/MB231 (cellular proliferation assay, Table 4) (converted)
result type: IC50 (µM)

O=C1NCc2cccc(c2)-c2ccnc(n2)Nc2ccc(C(=O)N3CCOCC3)c(c2)CN2CCC[C@@H]12	8.13

A. O=C1NCCCOc2cccc(c2)-c2ccnc(n2)Nc2ccc(N3CCOCC3)c(c2)CN2CCC1CC2
B. C[C@@H]1NCCc2cccc(c2)-c2ccnc(n2)Nc2ccc(N3CCOCC3)c(c2)CNC1=O
QUERY: Between the two listed entries A and B , which has its IC50 at the higher number? Answer = label.
RESULT: A
(A: 10 µM, B: 3.47 µM)

----------
Tested on: HCT-116
protocol summary: Cellular proliferation assay (Alamar blue), HCT-116
Type: cell-based
condition: Homo sapiens, 10% FCS, 72 hours with compound, Alamar blue 4 h
Reported IC50 values are given for each entry in this list.

Sample records with IC50:
COc1ccc2cc1CNCCCNC(=O)CN1CCN(CC1)Cc1cc(ccc1N1CCOCC1)Nc1nccc-2n1	> 10 µM
CC(C)Nc1cc2cc(c1)Nc1nccc(n1)-c1ccc(cc1)CN(C)CCCNC(=O)C1CCN(CC1)C2	> 10 µM
CC(C)Nc1cc2cc(c1)Nc1nccc(n1)-c1ccc(cc1)CN(C)CCCNC(=O)[C@H](CO)NC2	> 10 µM

QUERY: Fill in reported IC50 for this entry: `COc1ccc2cc1CN1CCC[C@H]1C(=O)NCCCc1ccc(cn1)-c1ccnc(n1)N2`
RESULT: > 10 µM

QUERY: Please report the measured IC50 for `COc1ccc2cc1CN(C)CCNC(=O)C1CCN(CC1)Cc1cc(cc(NC(C)C)c1)Nc1nccc-2n1`
RESULT: 7.24 µM

QUERY: Item `COc1ccc2cc1CN(C)CCNC(=O)CN1CCN(CC1)Cc1cccc(c1)Nc1nccc-2n1` : provide IC50
RESULT: > 10 µM

QUERY: // fetch IC50 given entry `COc1ccc2cc1CN(C)CCNC(=O)[C@H](CO)NCc1cc(Br)cc(c1)Nc1nccc-2n1`
RESULT: 2.29 µM

----------
subject of test: UniProt P49841
protocol summary: GSK-3β human kinase inhibition, SPA
Type: biochemical
condition: read-out: GSK3b pIC50 (converted)
result type: IC50 (nM)

COCCNC(=O)c1cc2cc(c1)Nc1nccc(n1)-c1cccc(c1)CNC(=O)[C@@H]1CCCN1C2 [Compound 44]	166
C[C@@H]1NCc2cc(ccc2N2CCOCC2)Nc2nccc(n2)-c2cccc(c2)OCCCNC1=O [Compound 88]	195
CN1CCNC(=O)[C@@H]2CCCN2Cc2cc(Br)cc(c2)Nc2nccc(n2)-c2ccc(cc2)C1 [Compound 155]	2340
